Would you kindly list IC50 for each of these binders?
- target.or.system: MBP-TbtD
- assay.details: fluorescence polarisation
The figure you give is taken to be in µM; do not add the unit.

Dear colleague, I am looking for the recorded IC50 of the following binder: MDLNALPMDVFELADSGVAVESLTAGHGMTEVGASCNCFCYICCSCSSA [TbtA D(−30)A]
7.28

Dear colleague, I am looking for the recorded IC50 of the following binder: MDLNDLPMDVFELADSGVAVEALTAGHGMTEVGASCNCFCYICCSCSSA [TbtA S(−13)A]
2.76

Dear colleague, I am looking for the recorded IC50 of the following binder: MDLNDLPMDVFELADSGVAVESLTAGHGMTAVGASCNCFCYICCSCSSA [TbtA E(−4)A]
0.7
